System: HOP-92 NSCLC
Assay: NCI tumour cell line growth inhibition, 48 h
Where a SMILES comes first, the peptide text is derived from it. [ ]: non-standard residue; d: D form. The star is where a group is joined. Boc = CC(C)(C)OC(=O)*; Lac = C[CH](O)C(=O)O; OBn = c1ccc(CO*)cc1
reported_metric: TGI

CC(C)(C)c1cc(C(=O)/C=C/c2c(Cl)cccc2Cl)cc(C(C)(C)C)c1O
> 95.7 µM
Cn1c(=O)c2c3ccccc3n(C)c2n(C)c1=O
> 100 µM
C1=CC2C=CC(C=C1)P2c1ccccc1 (stereo not given)
> 100 µM
COc1cc2c(c(OC)c1O)C(=O)C(OC)C(c1ccc(O)c(O)c1)O2 (stereo not given)
> 28.9 µM
CCOC(=O)c1c(SC(=O)c2ccc(C(C)(C)C)cc2)n(-c2ccccc2)c(=S)n(-c2ccccc2)c1=O
> 100 µM
O=C1NC(N/N=C/c2ccccc2)=N/C1=C\c1ccco1
37.3 µM
COc1c2c(cc3c1C(=O)c1c(O)cccc1C3=O)CC(O)CC2 (stereo not given)
40.1 µM
CSc1ccccc1C#C/C=C\C#Cc1ccccc1N1CCCC1=O
> 50 µM
CN(C)CCNc1ccc([N+](=O)[O-])c2sc3ccccc3c(=O)c12
51.2 µM
CC1CN1P1(N2CC2C)=NP(N2CC2C)(N2CC2C)=NP(N2CC2C)(N2CC2C)=N1 (stereo not given)
> 50 µM
NC(CSC(c1ccccc1)(c1ccccc1)c1ccc2c(c1)OCO2)C(=O)O (stereo not given)
36.9 µM
CC(=O)N1[C@H](C(=O)O)CS[C@H]1c1ccncc1
> 100 µM
Nc1cc2nc3ccccc3sc-2cc1=O
9.59 µM
Cc1c2n(c(=O)[nH]c1=O)C1OC(CO)C(O2)C1N=[N+]=[N-] (stereo not given)
> 100 µM
CSC(=N/C=C/c1ccccc1)SC
> 100 µM
Cc1ccc(S(=O)(=O)NC(=O)NC(CC(N)=O)C(=O)O)cc1 (stereo not given)
> 100 µM
CC1(C)COC(c2ccc(C(F)(F)F)cc2C(O)c2ccc3ccccc3c2)=N1 (stereo not given)
> 100 µM
O=C(NC(=S)Nc1ccc(Br)cc1)c1ccc2c(c1)Sc1ccccc1S2
32.5 µM
CC1OC(OC2C(O[C@H]3CC[C@@H]4C(=CC[C@@H]5[C@@]4(C)C(=O)C[C@]4(C)[C@@H]([C@H](C)CC[C@@H](O)C(C)(C)O)CC[C@@]54C)C3(C)C)OC(CO)C(O)C2O)C(O)C(O)C1O (stereo not given in full)
> 100 µM
CC(OC(=O)C(Cc1ccccc1)NC(=O)C(Cc1ccccc1)NC(=O)OC(C)(C)C)C(=O)OCc1ccccc1 (stereo not drawn) (Boc-Phe-Phe-[Lac]-OBn; configuration not given here)
> 100 µM

====

System: NCI-H226 lung
Experiment: NCI tumour cell line growth inhibition, 48 h
TGI by entry:
reported_metric: TGI

C/C(CCn1[nH]c(=O)ccc1=O)=N\O
> 100 µM
O=C(N/C(=C\c1cc(Cl)ccc1Cl)c1nc2[nH]c(=S)[nH]c(=O)c2[nH]1)c1ccccc1
> 100 µM
O=C(C1OC1c1ccc(Cl)cc1)C12CC3CC(CC(C3)C1)C2 (stereo not drawn)
38.5 µM
Nc1ncc(Br)c(NCC2(CO)CCC2)n1
> 100 µM
COc1ccccc1CCN1CCN(CCCc2ccccc2)CC1
> 100 µM
COc1ccc(/C=C\c2cc(OC)c3c(c2)OCO3)c(O)c1O
45.9 µM
Cc1cc(=O)[nH]c(NNC(C#N)c2cccc(O)c2)n1 (stereo not drawn)
> 100 µM
COc1ccc(-c2cc(=O)c3ccc(O)cc3o2)c(OC)c1OC
> 100 µM
Oc1ccc(Cl)cc1-c1cc(-c2ccccc2Cl)[nH]n1
> 100 µM
COc1ccc(NC(=O)c2cc(OC)cc(OC)c2)cc1
> 100 µM
CCCCCCCC(=O)SCC/C=C/[C@@H]1CC(=O)NCc2cccc(n2)C2=N[C@@](C)(CS2)C(=O)N[C@@H](C(C)C)C(=O)N1
> 33.3 µM
CC1(C)COC(c2ccc(C(F)(F)F)cc2C(O)c2ccc3ccccc3c2)=N1 (stereo not drawn)
> 100 µM
O=C1C2=C(SCCS2)C(=O)c2ccccc21
3.57 µM

====

Tested on: SK-OV-3 ovarian
Assay: NCI tumour cell line growth inhibition, 48 h
TGI by entry:
reported_metric: TGI

COc1ccccc1NC(=O)CC(=O)n1nc(C)c(N=Nc2ccccc2C(=O)O)c1C
> 100 µM
CC[C@@]12CCCN3CC[C@]4(c5cccc(OC)c5N(C(C)=O)[C@@H]4CC1)[C@H]32
> 100 µM
O=C1NC(N/N=C/C(O)C(O)C(O)C(O)CO)=N/C1=C\c1ccco1 (configuration not stated)
> 100 µM
CN(C)CCNc1ccc([N+](=O)[O-])c2sc3ccccc3c(=O)c12
> 100 µM
O=C(O)c1cc(C(=O)O)cc(N2C(=O)c3ccccc3C2=O)c1
> 100 µM
CC(=O)C(CN(C(C)C)C(C)C)C(c1ccccc1)c1c(O)c2ccccc2oc1=O (configuration not stated)
> 100 µM
COC(=O)Nc1nc2ccc(S(=O)c3ccccc3)cc2[nH]1 (configuration not stated)
12.4 µM
CN(C)c1ccc(C2CC(c3ccc4ccccc4c3O)=NN2)cc1 (configuration not stated)
> 100 µM
COc1cc2cnc3c4cc(OC(C)C)c(OC)cc4ccc3c2cc1OC
> 100 µM
CCN(CC)CC(C(=O)Nc1c(C)cccc1C)/C(C)=N\NC(=O)C[N+](C)(C)C (configuration not stated)
> 100 µM
Cc1ccc(N=N/C(=N/NC(=O)c2cc(Cl)ccc2O)c2ccc(N(CCC#N)CCC#N)cc2C)cc1
74.2 µM
COc1cc2nc(-c3ccc(C(F)(F)F)cc3)cc(OCCCN3CCC(O)CC3)c2cc1OC
25.3 µM
NC(N)=Nc1ccc(-c2ccc(N=C(N)N)cc2)cc1
> 100 µM
O=[N+]([O-])c1cccc2nc3ccccc3c(NCCCCNc3c4ccccc4nc4cccc([N+](=O)[O-])c34)c12
1.69 µM
NC(CCc1nc(-c2ccc(Cl)cc2)cs1)C(=O)O (configuration not stated)
> 100 µM
COc1cc(-c2ccc(Br)[nH]2)[nH]c1C=NCC(C)C
6.91 µM
O=C(O)C(Cc1ccccc1)N1C(=O)N/C(=C\c2ccc(F)cc2)C1=O (configuration not stated)
> 100 µM
Clc1cccc(Cc2cn3cc(-c4ccccc4)nc3s2)c1Cl
97.6 µM
C/C(=C\CO)CC/C=C(\C)CNc1c(F)c(F)c(F)c(F)c1F
> 100 µM
C1=CC2(C=CC13O[C@H](C1CCCCC1)[C@@H](C1CCCCC1)O3)O[C@H](C1CCCCC1)[C@@H](C1CCCCC1)O2
> 50 µM
NC1CC(=O)c2cscc21 (configuration not stated)
> 100 µM
CC1=C(C(=O)OCCO[N+](=O)[O-])C(c2cccc([N+](=O)[O-])c2)C(C(=O)OC(C)C)=C(C)N1 (configuration not stated)
36.9 µM

====

System: UACC-62 melanoma
Assay: NCI tumour cell line growth inhibition, 48 h
TGI by entry:
reported_metric: TGI (µM)

O=C(Nc1ccc(I)cc1)c1cc([N+](=O)[O-])ccc1O
14.1
CC1OC(OC2C(OC(=O)[C@]34CCC(C)(C)C[C@H]3C3=CC[C@@H]5[C@@]6(C)CC[C@H](OC7OC(C(=O)O)C(O)C(O)C7O)C(C)(C)[C@@H]6CC[C@@]5(C)[C@]3(C)C[C@H]4O)OCC(O)C2O)C(O)C(O)C1OC1OCC(OC2OCC(O)C(O)C2O)C(O)C1O (some centres undefined)
23.7
COc1ccc(-c2cc(-c3ccc(Nc4nc(Nc5ccccc5)nc(Nc5ccc(Cl)cc5)n4)cc3)nc(N)c2C#N)cc1
6.73
COc1cc(-c2ccc(Br)[nH]2)[nH]c1C=NCC(C)C
7.33

====

System: NCI-H23 lung
Assay: NCI tumour cell line growth inhibition, 48 h
reported_metric: GI50

CN(C)CCCNC1=C(Cl)C(=O)c2ccccc2C1=O
1.74 µM
C=C(CNCCO)[C@@H]1CC[C@]2(CO)CC[C@]3(C)[C@H](CC[C@@H]4[C@@]5(C)CCC(N)C(C)(C)[C@@H]5CC[C@]43C)[C@@H]12 (some centres not stated)
4.66 µM
Cn1ccnc1C(=O)/C=C/c1ccc(CC(=O)Nc2ccc(Br)cc2)cc1
2.75 µM
CCCCCCCC(=O)SCC/C=C/[C@@H]1CC(=O)NCc2cccc(n2)C2=N[C@@](C)(CS2)C(=O)N[C@@H](C(C)C)C(=O)N1
2.1 µM
COc1cc2nc(C)nc(N[C@H](C)c3cc(N)cc(C(F)(F)F)c3)c2cc1O[C@H]1CCOC1
13.2 µM
COc1c2ccoc2c(/C=C/C=O)c2oc(-c3ccccc3)cc(=O)c12
2.44 µM
O=C1c2cccnc2-c2nc(-c3ccccc3[N+](=O)[O-])cc3c2c1nc1ccccc13
3.67 µM
Clc1cccc(Cc2cn3cc(-c4ccccc4)nc3s2)c1Cl
60.7 µM
CNC(=O)c1cc(Oc2ccc3nc(NC(=O)Nc4ccc(Cl)c(C(F)(F)F)c4)sc3c2)ccn1
2.48 µM
CCCCCCCCSC1=CC(=O)c2nc3ccccc3c3ccnc1c23
58.2 µM
O=C(NCCNc1nccc(-c2c(-c3cccc(O)c3)nc3sccn23)n1)c1ccccc1O
4.51 µM
C=C1C(=O)[C@@]23CC[C@H]4[C@@](C)(CCC[C@@]4(C)C(=O)OC)[C@@H]2CC[C@]1(O)C3
2.41 µM
CC(C)c1ccc(C(C)C(=O)N(CC2=C(C(C)c3ccccn3)c3ccccc3C2)C(C)C)cc1 (configuration not stated)
3.35 µM
COc1cc(/C=C/c2cc(/C=C/c3ccc(O)c(OC)c3)n(C(=O)Nc3ccc(F)cc3)n2)ccc1O
0.727 µM
COC(=O)Nc1nc2ccc(S(=O)c3ccccc3)cc2[nH]1 (configuration not stated)
8.79 µM
Fc1ccc(Nc2ncnc3ccc(-c4cnc5[nH]ccc5c4)cc23)cc1Cl
8.74 µM
COc1ccc2c(c1)C(=O)/C(=C/c1ccc(OCC(=O)Nc3nccs3)cc1)O2
0.711 µM
